MEASURED_ON: T1, human E-selectin, cell-surface expressed (human, UniProt P16581 22-610)
T1 construct: also called CHO-human E-selectin cells; human CHO-E
T1 sequence: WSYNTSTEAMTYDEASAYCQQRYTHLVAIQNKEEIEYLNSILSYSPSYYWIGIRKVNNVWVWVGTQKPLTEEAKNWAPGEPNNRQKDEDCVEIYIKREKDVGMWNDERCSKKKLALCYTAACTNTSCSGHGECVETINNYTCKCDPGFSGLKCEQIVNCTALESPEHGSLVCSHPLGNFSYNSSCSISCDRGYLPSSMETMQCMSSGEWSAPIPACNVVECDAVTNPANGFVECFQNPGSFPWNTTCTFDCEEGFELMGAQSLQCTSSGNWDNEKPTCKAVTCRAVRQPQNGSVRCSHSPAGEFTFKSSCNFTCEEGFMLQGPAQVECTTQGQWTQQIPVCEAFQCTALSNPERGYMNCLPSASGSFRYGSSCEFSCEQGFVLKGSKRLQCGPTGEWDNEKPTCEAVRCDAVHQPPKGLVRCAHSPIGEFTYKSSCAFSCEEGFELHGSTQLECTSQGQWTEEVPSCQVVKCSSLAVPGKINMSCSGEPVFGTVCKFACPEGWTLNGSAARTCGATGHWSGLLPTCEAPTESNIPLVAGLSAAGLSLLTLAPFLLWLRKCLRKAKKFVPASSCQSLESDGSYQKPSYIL
ASSAY_PROTOCOL: flow cytometry, CHO cells
Let's look at some binders and their measured pEC50.
pEC50 field: float, defined as -log10 of concentration (mol/L).

Some solved cases for reference:
BINDER | pEC50
optimized anti-E-selectin antibody 1444 (antibody, human IgG1, kappa, V domains shown, effector-null human IgG1, kappa) VH: EVQLVESGGGLVQPGGSLRLSCAASGYAIRSAYMHWVRQAPGKGLEWVARIDPANGNTIYVDSVTGRFTISADNAKNSAYLQMNSLRAEDTAVYYCAMDLYSTSEYWGQGTLVTVSS VL: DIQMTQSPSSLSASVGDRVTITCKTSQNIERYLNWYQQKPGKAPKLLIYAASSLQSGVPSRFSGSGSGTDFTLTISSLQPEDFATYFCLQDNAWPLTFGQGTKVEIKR | 9.18
optimized anti-E-selectin antibody 1448 (antibody, human IgG1, kappa, V domains shown, effector-null human IgG1, kappa) VH: EVQLVESGGGLVQPGGSLRLSCAASGYAIRSAYMHWVRQAPGKGLEWVARIDPANGNTIYVDSVKERFTISADNAKNSAYLQMNSLRAEDTAVYYCAMDLYSTSEYWGQGTLVTVSS VL: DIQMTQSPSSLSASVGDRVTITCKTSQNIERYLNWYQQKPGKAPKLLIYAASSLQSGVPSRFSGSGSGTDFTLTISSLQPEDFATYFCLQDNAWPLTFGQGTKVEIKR | 9.12
humanized anti-E-selectin antibody 0841 (antibody, human IgG1, kappa, V domains shown, effector-null human IgG1, kappa) VH: EVQLVESGGGLVQPGGSLRLSCAASGYNIRSSYMHWVRQAPGKGLEWVARIDPANGNTIYAEKFKIRFTISADNAKNSAYLQMNSLRAEDTAVYYCAMDLYSTSEYWGQGTLVTVSS VL: DIQMTQSPSSLSASVGDRVTITCKTSQNINRYLNWYQQKPGKAPKLLIYNANSLQTGVPSRFSGSGSGTDFTLTISSLQPEDFATYFCLQDNSWPLTFGQGTKVEIKR | 9.15
optimized anti-E-selectin antibody 1284 (antibody, human IgG1, kappa, V domains shown, effector-null human IgG1, kappa) VH: EVQLVESGGGLVQPGGSLRLSCAASGYAIRSAYMHWVRQAPGKGLEWVARIDPANGNTIYVESVEGRFTISADNAKNSAYLQMNSLRAEDTAVYYCAMDLYSTSEYWGQGTLVTVSS VL: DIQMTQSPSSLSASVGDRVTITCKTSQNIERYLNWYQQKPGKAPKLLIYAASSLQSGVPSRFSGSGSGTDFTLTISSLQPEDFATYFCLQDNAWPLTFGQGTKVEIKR | 9.19

Query string: I'd like to know its pEC50. The binder in question is optimized anti-E-selectin antibody 1282 (antibody, human IgG1, kappa, V domains shown, effector-null human IgG1, kappa) VH: EVQLVESGGGLVQPGGSLRLSCAASGYAIRSAYMHWVRQAPGKGLEWVARIDPANGNTIYVDSVEGRFTISADNAKNSAYLQMNSLRAEDTAVYYCAMDLYSTSEYWGQGTLVTVSS VL: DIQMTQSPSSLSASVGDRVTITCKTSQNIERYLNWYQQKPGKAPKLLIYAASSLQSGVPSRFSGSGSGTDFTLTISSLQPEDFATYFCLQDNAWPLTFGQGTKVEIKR
Result string: 9.07
